# reported protein stability index; entries follow
B1: ATE1 (parent)
chain: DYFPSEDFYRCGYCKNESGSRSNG

- Variants of: B1
- Measurement protocol: protein stability index of a GFP-peptide fusion (GPS, HEK-293T) (PSI 1-6); higher = more stable;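 note: lentivirally expressed fusions sorted by FACS into six bins by GFP to DsRed ratio, PSI derived from sequencing read proportions per bin multiplied by bin number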
- Condition label: c terminus: a fixed tail appended
Please respond with just the number, no unit label.

>>> recorded_value("DYFPSEDFYRCGYCKNESGSRSNR [G24R]")
2.5
>>> recorded_value("DYFPSEDFYRCGYCKNESGSRRNG [S22R]")
1.68
>>> recorded_value("DYFPSEDFYRAGYCKNESGSRSNG [C11A]")
3.73
>>> recorded_value("DYFPSEDFYRCGYMKNESGSRSNG [C14M]")
4.25
>>> recorded_value("DYFPSEDFYHCGYCKNESGSRSNG [R10H]")
1.82
>>> recorded_value("DYFPSEDFYRCGNCKNESGSRSNG [Y13N]")
3.83
>>> recorded_value("DYFPSEDFYRCGYCKNCSGSRSNG [E17C]")
1.63
>>> recorded_value("DYFPSEDFYRCGYCKNESGSRSNI [G24I]")
2.34
>>> recorded_value("KYFPSEDFYRCGYCKNESGSRSNG [D1K]")
2.28
>>> recorded_value("DYFPSEDFYRCGYAKNESGSRSNG [C14A]")
4.24

Entry DYFPSVDFYRCGYCKNESGSRSNG [E6V] ; protein stability index = 1.45

For reference, reported protein stability index for DYFPSEDFYRCYYCKNESGSRSNG [G12Y] stands at 2.49

Measured protein stability index, DYFPSEDFYRYGYCKNESGSRSNG [C11Y] : 3.42

The reported value for DYFPGEDFYRCGYCKNESGSRSNG [S5G] in terms of protein stability index is 2.17

Looking up DYFPSEDFYRCGYCKNESASRSNG [G19A] , I see its protein stability index listed as 1.61
